target-desc: human AR (androgen receptor) (Homo sapiens)
Construct: expressed in transfected cells; host or cells: 293 cells (293-AR lysate)
Sequence (P10275 1-920): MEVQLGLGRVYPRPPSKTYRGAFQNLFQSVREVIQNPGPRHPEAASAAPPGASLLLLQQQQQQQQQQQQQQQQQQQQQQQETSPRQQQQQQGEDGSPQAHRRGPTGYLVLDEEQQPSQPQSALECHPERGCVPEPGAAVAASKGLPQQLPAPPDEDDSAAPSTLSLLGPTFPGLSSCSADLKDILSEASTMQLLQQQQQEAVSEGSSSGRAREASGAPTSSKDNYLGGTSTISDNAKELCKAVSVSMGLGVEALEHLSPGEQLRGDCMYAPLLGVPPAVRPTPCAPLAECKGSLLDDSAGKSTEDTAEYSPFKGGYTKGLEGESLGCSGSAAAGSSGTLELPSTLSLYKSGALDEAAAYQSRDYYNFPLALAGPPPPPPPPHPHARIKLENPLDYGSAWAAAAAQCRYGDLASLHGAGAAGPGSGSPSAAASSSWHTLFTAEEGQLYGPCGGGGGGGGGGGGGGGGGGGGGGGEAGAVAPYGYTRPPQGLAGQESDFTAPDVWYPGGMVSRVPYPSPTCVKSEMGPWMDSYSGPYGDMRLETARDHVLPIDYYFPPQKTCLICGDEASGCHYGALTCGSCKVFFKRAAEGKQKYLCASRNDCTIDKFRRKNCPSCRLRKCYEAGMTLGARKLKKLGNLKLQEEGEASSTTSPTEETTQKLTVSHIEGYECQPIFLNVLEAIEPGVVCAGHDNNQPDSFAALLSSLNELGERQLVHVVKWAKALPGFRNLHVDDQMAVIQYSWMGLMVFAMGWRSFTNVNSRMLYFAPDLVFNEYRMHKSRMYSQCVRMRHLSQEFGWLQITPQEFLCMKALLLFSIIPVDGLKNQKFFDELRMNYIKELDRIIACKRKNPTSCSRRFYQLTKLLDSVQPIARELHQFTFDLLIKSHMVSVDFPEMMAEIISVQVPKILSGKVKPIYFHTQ
assay-summary: Steroid hormone nuclear receptor binding assay, AR binding
Description: Cell lysates from 293 cells overexpressing human GR (glucocorticoid receptor), AR (androgen receptor), MR (mineralocorticoid receptor) or PR (progesterone receptor) are used for competition binding assays to determine Ki values for test compounds. […] Non-specific binding is determined in the presence of 500 nM dexamethasone for GR binding, 500 nM aldosterone for MR binding, or 500 nM methyltrienolone for AR and PR binding. […]
# Ki values compiled below
Report only the number, with the unit nM understood.

compound	result-type	quantity-unit	reported-measurement
CC(C)C(=O)NC1CCc2c(c3cc(C#N)ccc3n2Cc2ccccc2OC(F)F)C1 (stereo not drawn)	Ki	nM	4.6
CC(C)C(=O)NC1CCc2c(c3cc(C#N)ccc3n2Cc2ccccc2OC(F)(F)F)C1 (stereo not drawn)	Ki	nM	8
CC(C)C(=O)NC1CCc2c(c3cc(F)ccc3n2Cc2cccc(C#N)c2)C1 (stereo not drawn)	Ki	nM	61.5
CN(C)S(=O)(=O)NC1CCc2c(c3cc(C#N)ccc3n2Cc2cccc(F)c2)C1 (stereo not drawn)	Ki	nM	3.2
CC(C)C(=O)NC1CCc2c(c3cc(C#N)c(Cl)cc3n2Cc2cccc(F)c2)C1 (stereo not drawn)	Ki	nM	5.9

Field: next compound
Specify measured Ki for CC(C)C(=O)NC1CCc2c(c3cc4c(cc3n2Cc2cccc(F)c2)OCO4)C1 (stereo not drawn) .
7

Values were extracted from patent US7935722B2.
